- Experimental Target: c-Met kinase (recombinant c-Met) (Homo sapiens, UniProt P08581)
- Construct: 0.27 nM recombinant c-Met
- Sequence (P08581 25-1390): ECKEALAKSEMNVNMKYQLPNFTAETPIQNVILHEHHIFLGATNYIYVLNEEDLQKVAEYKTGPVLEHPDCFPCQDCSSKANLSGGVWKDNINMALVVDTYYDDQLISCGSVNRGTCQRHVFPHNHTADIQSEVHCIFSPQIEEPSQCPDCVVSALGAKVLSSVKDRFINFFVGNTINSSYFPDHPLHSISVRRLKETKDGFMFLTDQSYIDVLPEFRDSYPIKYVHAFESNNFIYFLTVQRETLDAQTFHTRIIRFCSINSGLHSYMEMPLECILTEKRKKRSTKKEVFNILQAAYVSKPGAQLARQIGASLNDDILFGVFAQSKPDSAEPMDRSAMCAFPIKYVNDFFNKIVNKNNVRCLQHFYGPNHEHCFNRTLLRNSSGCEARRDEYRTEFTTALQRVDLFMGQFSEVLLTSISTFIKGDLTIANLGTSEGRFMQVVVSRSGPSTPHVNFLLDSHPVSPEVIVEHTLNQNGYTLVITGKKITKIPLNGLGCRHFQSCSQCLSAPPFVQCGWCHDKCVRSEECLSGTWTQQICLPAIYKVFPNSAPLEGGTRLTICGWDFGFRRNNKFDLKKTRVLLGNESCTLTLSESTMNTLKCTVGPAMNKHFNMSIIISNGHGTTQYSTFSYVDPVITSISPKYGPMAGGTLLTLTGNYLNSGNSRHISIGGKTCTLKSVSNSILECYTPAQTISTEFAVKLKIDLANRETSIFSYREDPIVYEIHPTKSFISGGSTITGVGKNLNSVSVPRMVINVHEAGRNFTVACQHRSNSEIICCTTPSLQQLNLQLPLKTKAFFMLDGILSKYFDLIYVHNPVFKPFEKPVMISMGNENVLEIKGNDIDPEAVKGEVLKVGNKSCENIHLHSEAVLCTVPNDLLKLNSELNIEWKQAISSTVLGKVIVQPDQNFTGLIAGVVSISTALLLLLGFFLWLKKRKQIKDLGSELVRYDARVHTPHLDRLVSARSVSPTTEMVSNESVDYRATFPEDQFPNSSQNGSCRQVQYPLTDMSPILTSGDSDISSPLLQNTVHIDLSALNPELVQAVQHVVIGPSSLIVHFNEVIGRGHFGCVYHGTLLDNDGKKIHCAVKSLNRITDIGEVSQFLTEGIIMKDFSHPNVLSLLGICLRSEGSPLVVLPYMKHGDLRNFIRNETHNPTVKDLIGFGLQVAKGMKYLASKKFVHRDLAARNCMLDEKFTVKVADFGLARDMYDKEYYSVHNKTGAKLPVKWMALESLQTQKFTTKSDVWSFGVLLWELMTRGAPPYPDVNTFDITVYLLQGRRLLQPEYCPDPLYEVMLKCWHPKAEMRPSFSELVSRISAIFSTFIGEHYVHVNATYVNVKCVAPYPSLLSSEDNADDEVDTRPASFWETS
- Method Summary: In vitro kinase assay I (homogeneous time-resolved fluorescence tyrosine kinase assay)
pIC50: −log10 of the molar value.
Entries and their measured pIC50 follow.

1. CC(c1cccc(-c2ncc(OC3COC3)cn2)c1)c1nn(-c2cnn(C)c2)ccc1=O (single isomer, unassigned) [Example 216]    > 7.00
2. CCOc1cnc(-c2cccc(C(F)c3nn(-c4cnn(C)c4)ccc3=O)c2)nc1 (single isomer, unassigned) [Example 655]    6.00 to 7.00
3. CN1CCN(CCCOC(=O)Nc2cccc(Cc3nn(-c4cnn(C)c4)ccc3=O)c2)CC1    > 7.00

(Q) Indicate the recorded pIC50 value for this compound: CCn1cc(-n2ccc(=O)c(C(C)c3cccc(-c4ncc(OC5CN(C(=O)OC(C)(C)C)C5)cn4)c3)n2)cn1 (single isomer, unassigned)
(A) > 7.00

(Q) Indicate the recorded pIC50 value for this compound: CCOCC(O)COc1cnc(-c2cccc(Cc3nn(-c4cnn(C)c4)ccc3=O)c2)nc1 (racemic)
(A) > 7.00

(Q) Indicate the recorded pIC50 value for this compound: CC(c1cccc(-c2ncc(F)c(C3CC3)n2)c1)c1nn(-c2cnn(C)c2)ccc1=O (single isomer, unassigned)
(A) > 7.00

---

- Experimental Target: c-Met kinase (recombinant c-Met) (Homo sapiens, UniProt P08581)
- Construct: 0.27 nM recombinant c-Met
- Method Summary: In vitro kinase assay I (homogeneous time-resolved fluorescence tyrosine kinase assay)
Entries and their measured IC50 follow.

Sample records with IC50:
1. Cn1cc(-n2ccc(=O)c(Cc3cccc(-c4ncc(-c5cncnc5)cn4)c3)n2)cn1    < 100 nM
2. O=C(Nc1cccc(Cc2nn(-c3cc(F)c(F)c(F)c3)ccc2=O)c1)OCCCn1cccc1    < 100 nM
3. O=c1ccn(-c2ccccc2)nc1Cc1cccc(-c2ccccn2)c1    1000 to 3000 nM

Pending compound:
(Q) Indicate the recorded IC50 value for this compound: CCOc1cnc(-c2cccc(Cc3nn(-c4cnn(C5CN(C(=O)OC(C)(C)C)C5)c4)ccc3=O)c2)nc1
(A) < 100 nM

---

- Experimental Target: c-Met kinase (recombinant c-Met) (Homo sapiens)
- Construct: 0.27 nM recombinant c-Met
- Method Summary: In vitro kinase assay I (homogeneous time-resolved fluorescence tyrosine kinase assay)
Endpoint Label: IC50

Sample records with IC50:
1. Cn1cc(-n2ccc(=O)c(Cc3ccc4[nH]c(=O)[nH]c4c3)n2)cn1    100 to 1000 nM
2. CC(c1cccc(-c2ncn(C)n2)c1)c1nn(-c2cnn(C)c2)ccc1=O (single isomer, unassigned) [Example 682]    1000 to 3000 nM
3. Cn1cc(-n2ccc(=O)c(Cc3cccc(-c4ncc(N5CCN(C(=O)OC(C)(C)C)CC5)cn4)c3)n2)cn1    < 100 nM
4. COc1cnc(-c2cccc(C(CO)c3nn(-c4cnn(C)c4)ccc3=O)c2)nc1 (racemic)    1000 to 3000 nM
5. Cn1cc(-n2ccc(=O)c(Cc3ccc4ncc(OCCN5CCOCC5)cc4c3)n2)cn1    100 to 1000 nM

(Q) Indicate the recorded IC50 value for this molecule: CCOc1cnc2ccc(C(C)c3nn(-c4cnn(CC)c4)ccc3=O)cc2c1 (single isomer, unassigned) [Example 227]
(A) < 100 nM

(Q) Indicate the recorded IC50 value for this molecule: CCCOC(=O)Nc1cccc(Cc2nn(-c3cnn(CCOC)c3)ccc2=O)c1
(A) 100 to 1000 nM

(Q) Indicate the recorded IC50 value for this molecule: Cn1cc(-n2ccc(=O)c(Cc3cccc(-c4ncc(O[C@@H]5COC[C@@H]5F)cn4)c3)n2)cn1 (racemic)
(A) < 100 nM

(Q) Indicate the recorded IC50 value for this molecule: CCOc1cnc(-c2cccc(Cc3nn(-c4cc(F)cc(F)c4)ccc3=O)c2)nc1
(A) < 100 nM

(Q) Indicate the recorded IC50 value for this molecule: Cn1cc(-n2ccc(=O)c(Cc3cccc(-c4ncc(OCC5CCOC(C)(C)C5)cn4)c3)n2)cn1 (racemic)
(A) < 100 nM

(Q) Indicate the recorded IC50 value for this molecule: COCCNC(=O)Nc1cccc(Cc2nn(-c3cnn(C)c3)ccc2=O)c1
(A) < 100 nM

(Q) Indicate the recorded IC50 value for this molecule: CCOc1cnc(-c2cccc(Cc3nn(-c4cnn(CC(=O)N(C)C)c4)ccc3=O)c2)nc1
(A) 100 to 1000 nM

(Q) Indicate the recorded IC50 value for this molecule: COCc1cnc(-c2cccc(C(C)c3nn(-c4cnn(C)c4)ccc3=O)c2)nc1 (single isomer, unassigned) [Example 220]
(A) < 100 nM

(Q) Indicate the recorded IC50 value for this molecule: Cn1cc(-n2ccc(=O)c(Cc3cccc(-c4ncc(OCC5CCOC5)cn4)c3)n2)cn1 (racemic)
(A) < 100 nM

(Q) Indicate the recorded IC50 value for this molecule: Cn1cc(-n2ccc(=O)c(Cc3cccc(-c4ncc(C5CCNCC5)cn4)c3)n2)cn1
(A) < 100 nM

(Q) Indicate the recorded IC50 value for this molecule: CCn1cc(-n2ccc(=O)c(Cc3cccc(-c4ncc(OCc5ccccc5)cn4)c3)n2)cn1
(A) < 100 nM

---

- Experimental Target: c-Met kinase (recombinant c-Met) (Homo sapiens, UniProt P08581)
- Construct: 0.27 nM recombinant c-Met
- Method Summary: In vitro kinase assay I (homogeneous time-resolved fluorescence tyrosine kinase assay)
Entries and their measured IC50 follow.

Sample records with IC50:
1) COCCOC(=O)Nc1cccc(C(C)c2nn(-c3cnn(C)c3)ccc2=O)c1 (single isomer, unassigned) [Example 652]    < 100 nM
2) N#Cc1cccc(-n2ccc(=O)c(Cc3cccc(NC(=O)OCC4COCCO4)c3)n2)c1 (racemic)    < 100 nM
3) O=c1ccn(-c2ccc(Cl)cc2)nc1Cc1ccc(O)cc1    100 to 1000 nM
4) Cn1cnc(-c2cccc(Cc3nn(-c4cnn(C)c4)ccc3=O)c2)c1    100 to 1000 nM
5) COCCOc1cnc(-c2cccc(Cc3nn(-c4cc(F)cc(C#N)c4)ccc3=O)c2)nc1    < 100 nM
6) CC(C)(O)CCOC(=O)Nc1cccc(Cc2nn(-c3cc(F)c(F)c(F)c3)ccc2=O)c1    < 100 nM

(Q) Indicate the recorded IC50 value for this compound: CCn1cc(-n2ccc(=O)c(Cc3cccc(-c4ncc(OCC5COCCO5)cn4)c3)n2)cn1 (racemic)
(A) < 100 nM

(Q) Indicate the recorded IC50 value for this compound: Cn1cc(-n2ccc(=O)c(Cc3cccc(NC(=O)OCC(F)(F)CN)c3)n2)cn1
(A) < 100 nM

---

- Experimental Target: c-Met kinase (recombinant c-Met) (Homo sapiens)
- Construct: 0.27 nM recombinant c-Met
- Method Summary: In vitro kinase assay I (homogeneous time-resolved fluorescence tyrosine kinase assay)
pIC50: −log10 of the molar value.
Endpoint Label: pIC50

Sample records with pIC50:
1. CCCOC(=O)Nc1cccc(Cc2nn(-c3cc(Cl)nc(Cl)c3)ccc2=O)c1 [Example 56]    > 7.00
2. Cn1cc(-n2ccc(=O)c(Cc3cccc(-c4ncn(CCCC5OCC(C)(C)CO5)n4)c3)n2)cn1 [Example 720]    > 7.00
3. CCCNC(=O)Nc1cccc(Cc2nn(-c3cnn(C)c3)ccc2=O)c1 [Example 489]    > 7.00
4. Cn1cc(-n2ccc(=O)c(Cc3cccc(-c4ncn(CCc5ccccc5)n4)c3)n2)cn1 [Example 715]    6.00 to 7.00
5. CCn1cc(-n2ccc(=O)c(Cc3cccc(-c4ncc(OC5COC5)cn4)c3)n2)cn1 [Example 165]    > 7.00
6. Cn1cc(-n2ccc(=O)c(Cc3cccc(N4CCOC4=O)c3)n2)cn1 [Example 637]    5.52 to 6.00
7. COC/C=C/c1cnc(-c2cccc(Cc3nn(-c4cnn(C)c4)ccc3=O)c2)nc1 [Example 402]    > 7.00
8. CCOc1cnc(-c2cccc(Cc3nn(-c4ccc(C(=O)NCCO)c(F)c4)ccc3=O)c2)nc1 [Example 722]    > 7.00

(Q) Indicate the recorded pIC50 value for this molecule: CNC(=O)CCn1cc(-n2ccc(=O)c(Cc3cccc(NC(=O)OCC(C)C)c3)n2)cn1 [Example 702]
(A) > 7.00

(Q) Indicate the recorded pIC50 value for this molecule: Cn1cc(-n2ccc(=O)c(Cc3cccc(-c4ncc(N5CCCC5)cn4)c3)n2)cn1 [Example 470]
(A) > 7.00

(Q) Indicate the recorded pIC50 value for this molecule: COC(C)(C)COc1cnc(-c2cccc(Cc3nn(-c4cnn(C)c4)ccc3=O)c2)nc1 [Example 267]
(A) > 7.00

(Q) Indicate the recorded pIC50 value for this molecule: CCN(CC)CCCOC(=O)Nc1cccc(Cc2nn(-c3cnn(C)c3)ccc2=O)c1 [Example 571]
(A) > 7.00

(Q) Indicate the recorded pIC50 value for this molecule: CCCn1cnc(-c2cccc(C(C)c3nn(-c4cnn(C)c4)ccc3=O)c2)n1 (single isomer, unassigned) [Example 684]
(A) 5.52 to 6.00

(Q) Indicate the recorded pIC50 value for this molecule: CCCn1cc(-n2ccc(=O)c(Cc3cccc(NC(=O)OCC)c3)n2)cn1 [Example 112]
(A) > 7.00

(Q) Indicate the recorded pIC50 value for this molecule: Cn1cc(-n2ccc(=O)c(Cc3cccc(-c4ncc(O[C@H]5CC[C@](C)(O)CC5)cn4)c3)n2)cn1 [Example 122]
(A) > 7.00

(Q) Indicate the recorded pIC50 value for this molecule: CCOC(=O)Nc1cccc(Cc2nn(-c3ccccc3)ccc2=O)c1 [Example 642]
(A) 6.00 to 7.00

Cited source for all entries: patent US20120264735A1
